Each recorded value in this set is attributed to the supplement of paper PMC13380429.

# System: A549-ACE2 infected with SARS-CoV-2
# EXPERIMENTAL DETAILS: cell count relative to DMSO; higher = less toxic
# CONDITION: 10 µM; 24 h
Please go through the items and note down their cell count.

The cases that follow already have their cell count on record.
Input line: Given CNC(=O)c1ccccc1Sc1ccc2c(/C=C/c3ccccn3)n[nH]c2c1 [axitinib] , respond with its cell count.
Output line: 77%

Input line: Note down cell count recorded for CCC(CC)COC(=O)[C@H](C)N[P@](=O)(OC[C@H]1O[C@@](C#N)(c2ccc3c(N)ncnn23)[C@H](O)[C@@H]1O)Oc1ccccc1 [Remdesivir]
Output line: 111%

Input line: Dear colleague, please send me the reported cell count for O=c1[nH]c2ccccc2n1C1CCN(CCCC(c2ccc(F)cc2)c2ccc(F)cc2)CC1 [pimozide] when you can.
Output line: 113%

Others:
Input line: Dear colleague, please send me the reported cell count for CCN1CCC(n2cc(CNc3cc(Cl)c4ncc(C#N)c(Nc5ccc(F)c(Cl)c5)c4c3)nn2)CC1 [cot-inhibitor-2] when you can.
Output line: 66%

###

# Test system: Caco-2
# EXPERIMENTAL DETAILS: drug sensitivity score (DSS) for viability; higher = more toxic; extreme values may be limits of the assay
# CONDITION: 72 h
METRIC: drug sensitivity score
Numbers only.

Example entries begin here.
Input line: # return drug sensitivity score of C=CCN1C[C@H](C)N([C@H](c2ccc(C(=O)N(CC)CC)cc2)c2cccc(O)c2)C[C@H]1C [BW-373U86] (system: Caco-2)
Output line: 0

Input line: Fill in drug sensitivity score for CC[C@H]1OC(=O)[C@H](C)[C@@H](O[C@H]2C[C@@](C)(OC)[C@@H](O)[C@H](C)O2)[C@H](C)[C@@H](O[C@@H]2O[C@H](C)C[C@H](N(C)C)[C@H]2O)[C@](C)(OC)C[C@@H](C)C(=O)[C@H](C)[C@@H](O)[C@]1(C)O [clarithromycin] tested with Caco-2.
Output line: 0

***
Input line: Report its drug sensitivity score with Caco-2 as the test system: CCCOC(=O)c1ccc(O)cc1 [propyl 4-hydroxybenzoate]
Output line: 0

###

# Tested on: Vero E6
# EXPERIMENTAL DETAILS: relative viability EC50 (midpoint between 100% and the lowest measured viability); higher = less toxic
# CONDITION: 72 h
I'd appreciate it if you could supply relative viability EC50 values for the items below.
One number for each entry, in nM.

Input line: Give relative viability EC50 for O=C(NNc1nc2cc(F)ccc2n2cccc12)c1cnccn1 [SC-144]
Output line: 368

We next turn to a different compound, shown below.
Input line: Please indicate relative viability EC50 recorded for COc1ccc(C[C@H]2NC[C@H](O)[C@H]2OC(C)=O)cc1 [anisomycin]
Output line: 61.4

###

Provide the recorded cell viability for the entries that follow.
# Tested on: Caco-2
# EXPERIMENTAL DETAILS: cell viability relative to DMSO; higher = less toxic
# CONDITION: 72 h; 10 nM
Give bare numbers, in %.

Input line: State its cell viability for this compound: `N#Cc1ccc2[nH]c(O)c(-c3ccc(CN4CCOCC4)cn3)c2c1`
Output line: 100

Would you be so kind as to report cell viability for each listed record?
1. CN(C)Cc1c(C(=O)NCCOc2ccc(C(=O)NO)cc2)oc2ccccc12
2. OC(CN1CCN(c2cccc(Cl)c2)CC1)C(c1ccccc1)c1ccccc1 (centres undefined)
3. COC1CCN(c2cccc(-c3cc(NC(C)=O)nc(-n4nc(C)cc4C)n3)n2)CC1
4. COc1ccc(C(=O)N2CCCc3cc(C4=NNC(=O)SC4C)ccc32)cc1OC (centres undefined)
5. Cc1cc(Nc2nc(N[C@@H](C)c3ccc(F)cc3)c(C#N)cc2F)n[nH]1
6. COc1ccc(CNC(=O)/C=C/c2ccc3[nH]cc(CCN(C)C)c3c2)cc1

Output line:
101
101
89.3
94.2
109
95

Can you give me cell viability for all of these, one by one?
1. CCN(CC)CCNc1ccc(CO)c2sc3ccccc3c(=O)c12
2. COC(=O)[C@H](Cc1cccc(C(=N)N)c1)[C@@H](C)NC(=O)c1ccc(-c2cc[n+]([O-])cc2)cc1

Output line:
[106, 104]
